Biological target: Torsin-1A-interacting protein 1 (Homo sapiens)
Test: LAP1 binders from COS7 cell lysate, primary screen, small-molecule microarray, 635/667 nm fluorescence (AID 1116)
Conditions: COS7-hLAP1 lysate binding, 635 nm fluorescence, higher = more signal
Would you mind telling me the reported composite z-score of each entry?

Please give the measured composite z-score for this molecule: COc1cccc([C@H]2Oc3ccc(OC)cc3C(=NOC(C)CN3CCCCc4nc(C)c(C)cc43)[C@@H]2O)c1 (some centres not stated)
0.29

Name the reported composite z-score value associated with the molecule CCc1cc2c(nc1CC)CCN(CCC(C)=NO[C@@H](C)c1cn([C@H](CO)Cc3ccccc3)nn1)C2
-0.11

Entry CCOC(=O)[C@H](CC(C)C)NC(=O)CCC1CC(OC(=O)NCc2ccc3c(c2)OCO3)CC2(CCCC(COC(=O)NCc3cccc(C(F)(F)F)c3)O2)O1 (some centres not stated) : reported composite z-score = ?
-0.0298

Please give the measured composite z-score for this molecule: COc1ccc(O[C@@H]2[C@H](O)CO[C@H]2C=Cc2ccccc2)cc1
-0.395

Give the measured composite z-score of Cc1cc2c(c(=O)o1)[C@@H](O)[C@H]1O[C@H]1C2=O .
0.27

Can you look up the measured composite z-score of CCOC(=O)[C@H](Cc1ccccc1)NC(=O)CCC1CC(OC(=O)NCCc2ccc(F)cc2)CC2(CCCC(COC(=O)NCCc3ccccc3OC)O2)O1 (some centres not stated) for me?
0.705

Record request: composite z-score value, item O=C1[C@H]2[C@H]3[C@H](O)[C@H](O)CC(=NO[C@@H]4O[C@H](CO)[C@@H](O)[C@H](O)[C@H]4O)[C@H]3CC[C@H]2C(=O)N1c1cccc(Oc2ccccc2)c1
0.675
